Items are presented alongside their recorded fold (off-rate improvement over DLLBII101G08).
target.or.system: T1, recombinant human DLL4 (human, UniProt Q9NR61 25-522)
T1 construct: R&D Systems C-terminally His-tagged extracellular domain; also called rhDLL4; hDLL4; not shown: C-terminal His tag
T1 sequence (Q9NR61 25-522): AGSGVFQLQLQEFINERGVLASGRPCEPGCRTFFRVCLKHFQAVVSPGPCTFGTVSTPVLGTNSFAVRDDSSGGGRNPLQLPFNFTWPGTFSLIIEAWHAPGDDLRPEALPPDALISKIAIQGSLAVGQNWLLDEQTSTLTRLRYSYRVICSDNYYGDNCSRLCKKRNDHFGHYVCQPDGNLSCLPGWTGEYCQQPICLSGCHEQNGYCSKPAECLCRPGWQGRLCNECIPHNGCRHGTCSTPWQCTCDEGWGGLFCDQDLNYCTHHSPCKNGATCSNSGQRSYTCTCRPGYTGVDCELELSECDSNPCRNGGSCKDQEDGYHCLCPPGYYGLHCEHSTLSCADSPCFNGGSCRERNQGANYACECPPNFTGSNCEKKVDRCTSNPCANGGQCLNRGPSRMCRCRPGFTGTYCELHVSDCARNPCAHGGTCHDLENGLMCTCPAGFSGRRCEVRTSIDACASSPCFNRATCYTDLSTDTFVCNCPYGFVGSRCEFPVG
protocol.summary: ProteOn off-rate screen, periplasmic extract, hDLL4 on chip
parameter.measured: fold (off-rate improvement over DLLBII101G08) (fold)

{"binder": "DLLBII129H07 (VHH, not shown: C-terminal c-myc tag and (His)6 tag) VHH: EVQLVESGGGLVQAGGSLRLSCAASGRTFSSYAMAWYRQAPGKEREYVAAIRWSGGTAYYADSVQGRFTISRDNAKNTVYLQMNSLKPEDTAVYYCANRAPDTRLEPYEYDYWGQGTQVTVSS", "assay.value": 30}
{"binder": "DLLBII129G09 (VHH) VHH: EVQLVESGGGLVQAGGSLRLSCAASGRTFSSYAMAWYRQAPGKEREYVAAIRWSGETAYYADSVQGRFTISRDNAKNTVYLQMNSLKPEDTAVYYCANRAPDTRLEPYLYDHWGQGTQVTVSS", "assay.value": 26}
{"binder": "DLLBII129H04 (VHH) VHH: EVQLVESRGGLVQAGGSLRLSCAASGRTFSSYAMAWFRQAPGKEREYVAAIRWSGGTAYYADSVQGRFTISRDNAKNTVYLQMNSLKPEDTAVYYCANRAPDTRLEPYLYDHWGQGTQVTVSS", "assay.value": 33}
{"binder": "DLLBII130B04 (VHH) VHH: EVQLVESGGGLVQAGGSLRLSCAASGRTFSSYAMAWFRQAPGKEREYVAAIRWSGGTAYYADSVQGRFTISRDNAKNTVYLQMNSLKPEDTAVYYCANRAPDTRLRPYLYDHWGQGTQVTVSS", "assay.value": 22}
{"binder": "DLLBII130F06 (VHH, not shown: C-terminal c-myc tag and (His)6 tag) VHH: EVQLVESGGGLVQAGGSLRLSCAASGRTFSSYAMAWYRQAPGKEREYVAAIRWSGGTAYYADSVQGRFTISRDNAKNTVYLQMNSLKPEDTAVYYCANRAPDTRLAPYEYDYWGQGTQVTVSS", "assay.value": 27}
